Cited source for all entries: paper PMC6422671

assay: Plasma pharmacokinetics after single oral dose, phase I; data geometric mean (coefficient of variation), t max median (range); assay type: in vivo, healthy men; details: male, human, plasma, oral, 15 mg, 15 mg fasted
Experimental Endpoint: Cmax (nM)
Expressed in nM, but write only the number.

Prompt: Quickly give me recorded Cmax for C[C@@H](N)c1cc(Cl)ccc1Cn1c(=S)[nH]c(=O)c2[nH]ccc21
Completion: 83.4

* * *

experiment: Plasma pharmacokinetics after single oral dose, phase I; data geometric mean (coefficient of variation), t max median (range); format: in vivo, healthy men; details: male, human, plasma, oral, 5 mg, 5 mg fasted
Experimental Endpoint: Cmax (nM)
Expressed in nM, but write only the number.

Prompt: Quickly give me recorded Cmax for C[C@@H](N)c1cc(Cl)ccc1Cn1c(=S)[nH]c(=O)c2[nH]ccc21 [AZD4831]
Completion: 15

* * *

test: Plasma pharmacokinetics after single oral dose, phase I; data geometric mean (coefficient of variation), t max median (range); type: in vivo, healthy men; details: male, human, plasma, po, single oral doses 5–405 mg fasted, range across doses; read-out: plasma half-life (t 1/2λz estimates)
Experimental Endpoint: half-life

Prompt: Quickly give me recorded half-life for C[C@@H](N)c1cc(Cl)ccc1Cn1c(=S)[nH]c(=O)c2[nH]ccc21 [AZD4831]
Completion: 38.2 to 50 h

* * *

assay: Plasma pharmacokinetics after single oral dose, phase I; data geometric mean (coefficient of variation), t max median (range); type: in vivo, healthy men; conditions: male, human, plasma, oral, 15 mg, 15 mg fasted, median (range)
Experimental Endpoint: Tmax (min)
Expressed in min, but write only the number.

Prompt: Quickly give me recorded Tmax for C[C@@H](N)c1cc(Cl)ccc1Cn1c(=S)[nH]c(=O)c2[nH]ccc21 [AZD4831]
Completion: 44.4

* * *

test: Urinary pharmacokinetics after single oral dose, phase I; format: in vivo, healthy men; conditions: male, human, urine, 5 mg, 5 mg fasted, geometric mean (CV), read-out: CLR (converted)
Experimental Endpoint: CL renal (mL/min)
Expressed in mL/min, but write only the number.

Prompt: Quickly give me recorded CL renal for C[C@@H](N)c1cc(Cl)ccc1Cn1c(=S)[nH]c(=O)c2[nH]ccc21 [AZD4831]
Completion: 252

* * *

assay: Plasma pharmacokinetics after single oral dose, phase I; data geometric mean (coefficient of variation), t max median (range); assay type: in vivo, healthy men; settings: male, human, plasma, oral, 45 mg, 45 mg fasted; read-out: Vz/F
Experimental Endpoint: Vd/F (L)
Expressed in L, but write only the number.

Prompt: Quickly give me recorded Vd/F for C[C@@H](N)c1cc(Cl)ccc1Cn1c(=S)[nH]c(=O)c2[nH]ccc21 [AZD4831]
Completion: 1450

* * *

experiment: Urinary pharmacokinetics after single oral dose, phase I; assay type: in vivo, healthy men; conditions: male, human, urine, 15 mg, 15 mg fasted, geometric mean (CV), read-out: CLR (converted)
Experimental Endpoint: CL renal (mL/min)
Expressed in mL/min, but write only the number.

Prompt: Quickly give me recorded CL renal for C[C@@H](N)c1cc(Cl)ccc1Cn1c(=S)[nH]c(=O)c2[nH]ccc21 [AZD4831]
Completion: 240

* * *

assay: Plasma pharmacokinetics after single oral dose, phase I; data geometric mean (coefficient of variation), t max median (range); type: in vivo, healthy men; details: male, human, plasma, oral, 15 mg, 15 mg fasted
Experimental Endpoint: AUC(0-inf)
Remember to follow the number with its unit.

Prompt: Quickly give me recorded AUC(0-inf) for C[C@@H](N)c1cc(Cl)ccc1Cn1c(=S)[nH]c(=O)c2[nH]ccc21 [AZD4831]
Completion: 1.67 µM·h
